FYI, the data here is from patent US10280159B2.

Catalogue of pEC50 readings, one per entry.
- System under test: human S1PR4 (Homo sapiens)
- Construct: host or cells: CHO-K1
- Sequence (O95977 whole entry): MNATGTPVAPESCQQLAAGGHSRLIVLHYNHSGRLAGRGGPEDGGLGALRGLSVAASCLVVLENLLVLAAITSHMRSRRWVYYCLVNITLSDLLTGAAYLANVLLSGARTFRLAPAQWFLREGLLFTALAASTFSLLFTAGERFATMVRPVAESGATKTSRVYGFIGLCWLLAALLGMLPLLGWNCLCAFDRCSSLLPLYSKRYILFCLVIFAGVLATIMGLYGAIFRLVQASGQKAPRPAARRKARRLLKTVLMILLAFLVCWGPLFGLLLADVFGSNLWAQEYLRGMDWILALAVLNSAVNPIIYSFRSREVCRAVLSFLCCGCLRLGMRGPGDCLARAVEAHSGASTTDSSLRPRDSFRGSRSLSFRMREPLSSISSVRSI
- Assay explanation: Intracellular Ca2+ release (FLIPR) agonist potency, S1P4
- Format: cell-based
- Condition set: recombinant CHO-K1 cells expressing human S1PR4, aequorin, Gq/i5; Calcium 5 FLIPR; read-out: S1P4 EC50
pEC50: −log10 of the molar value.

[
  {
    "Compound": "O=C(O)C1CN(C2COc3cc(OCc4ccc(C(F)(F)F)cc4F)ccc3C2)C1 (stereo not shown)",
    "pEC50": "< 6.00"
  },
  {
    "Compound": "O=C(O)C12CC(NC3CCc4cc(OCc5c(Cl)cccc5Cl)ccc4C3)(C1)C2 (stereo not shown)",
    "pEC50": "> 6.00"
  },
  {
    "Compound": "O=C(O)C1CN(C2COc3cc(OCCCc4cccc(F)c4)ccc3C2)C1 (stereo not shown)",
    "pEC50": "< 6.00"
  },
  {
    "Compound": "O=C(O)C1CN(C2COc3cc(OCc4c(F)cccc4Cl)ccc3C2)C1 (stereo not shown)",
    "pEC50": "< 6.00"
  }
]

* * *

Listing of recorded pEC50 by entry.
- System under test: human S1PR5 (Homo sapiens, UniProt Q9H228)
- Construct: host or cells: CHO-K1
- Sequence (Q9H228 whole entry): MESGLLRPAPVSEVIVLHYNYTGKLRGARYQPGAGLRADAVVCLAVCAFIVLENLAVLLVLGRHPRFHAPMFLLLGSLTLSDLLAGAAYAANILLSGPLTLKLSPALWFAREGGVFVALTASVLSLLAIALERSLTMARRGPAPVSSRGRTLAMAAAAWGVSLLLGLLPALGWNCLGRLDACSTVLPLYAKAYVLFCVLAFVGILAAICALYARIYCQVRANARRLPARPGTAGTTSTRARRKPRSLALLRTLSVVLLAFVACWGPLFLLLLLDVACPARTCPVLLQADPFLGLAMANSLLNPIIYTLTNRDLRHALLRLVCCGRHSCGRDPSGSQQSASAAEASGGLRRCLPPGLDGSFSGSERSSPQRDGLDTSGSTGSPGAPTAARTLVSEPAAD
- Assay explanation: Intracellular Ca2+ release (FLIPR) agonist potency, S1P5
- Assay type: cell-based
- Condition set: recombinant CHO-K1 cells expressing human S1PR5, aequorin, Gq/i5; Calcium 5 FLIPR; read-out: S1P5 EC50 range
- Method: Agonistic activity was measured using the method described below. Intracellular Ca^2+ Release Agonist potency and intrinsic activity was assessed by measurement of intracellular Ca^2+ release. […] Phospho-fingolimod was used as positive control. […] Measurements were performed using a fluorometric imaging plate reader FLIPR®tetra (Molecular Devices). […]
pEC50: −log10 of the molar value.
Property name: pEC50

[
  {
    "Molecule": "O=C(O)C1CN(C2COc3cc(OCC4CC4)ccc3C2)C1 (stereo not drawn) [Compound 231]",
    "System under test": "human S1PR5 (Homo sapiens, UniProt Q9H228)",
    "Property name": "pEC50",
    "Meas value": "5.00 to 6.00"
  },
  {
    "Molecule": "O=C(O)C1CN(C2COc3cc(OCCOc4cccc(F)c4)ccc3C2)C1 (stereo not drawn) [Compound 97]",
    "System under test": "human S1PR5 (Homo sapiens, UniProt Q9H228)",
    "Property name": "pEC50",
    "Meas value": "5.00 to 6.00"
  },
  {
    "Molecule": "O=C(O)C1CN(C2COc3cc(OCCc4c(Cl)cccc4Cl)ccc3C2)C1 (stereo not drawn) [Compound 69]",
    "System under test": "human S1PR5 (Homo sapiens, UniProt Q9H228)",
    "Property name": "pEC50",
    "Meas value": "7.00 to 8.00"
  },
  {
    "Molecule": "CCc1cccc(Cl)c1COc1ccc2c(c1)OCC(NC13CC(C(=O)O)(C1)C3)C2 (stereo not drawn) [Compound 121]",
    "System under test": "human S1PR5 (Homo sapiens, UniProt Q9H228)",
    "Property name": "pEC50",
    "Meas value": "6.00 to 7.00"
  },
  {
    "Molecule": "O=C(O)COC1CCc2cc(OCc3ccc(Cl)c(Cl)c3)ccc2C1 (stereo not drawn) [Compound 199]",
    "System under test": "human S1PR5 (Homo sapiens, UniProt Q9H228)",
    "Property name": "pEC50",
    "Meas value": "5.00 to 6.00"
  },
  {
    "Molecule": "O=C(O)C1CN(C2COc3cc(C#Cc4ccccc4OC(F)F)ccc3C2)C1 (stereo not drawn) [Compound 42]",
    "System under test": "human S1PR5 (Homo sapiens, UniProt Q9H228)",
    "Property name": "pEC50",
    "Meas value": "7.00 to 8.00"
  },
  {
    "Molecule": "COc1ccc(COc2ccc3c(c2)OCC(N2CC(C(=O)O)C2)C3)cc1F (stereo not drawn) [Compound 95]",
    "System under test": "human S1PR5 (Homo sapiens, UniProt Q9H228)",
    "Property name": "pEC50",
    "Meas value": "5.00 to 6.00"
  },
  {
    "Molecule": "O=C(O)COC1CCc2cc(OCc3ccc(Cl)cc3)ccc2C1 (stereo not drawn) [Compound 209]",
    "System under test": "human S1PR5 (Homo sapiens, UniProt Q9H228)",
    "Property name": "pEC50",
    "Meas value": "5.00 to 6.00"
  },
  {
    "Molecule": "O=C(O)C1CN(C2COc3cc(OCCOc4ccc(F)cc4)ccc3C2)C1 (stereo not drawn) [Compound 93]",
    "System under test": "human S1PR5 (Homo sapiens, UniProt Q9H228)",
    "Property name": "pEC50",
    "Meas value": "5.00 to 6.00"
  },
  {
    "Molecule": "CCc1cccc(Cl)c1COc1ccc2c(c1)CCC(NCCC(=O)O)C2 (stereo not drawn) [Compound 6]",
    "System under test": "human S1PR5 (Homo sapiens, UniProt Q9H228)",
    "Property name": "pEC50",
    "Meas value": "> 8.00"
  },
  {
    "Molecule": "CCCc1ccc(COc2ccc3c(c2)OCC(N2CC(C(=O)O)C2)C3)c(OC)c1 (stereo not drawn) [Compound 148]",
    "System under test": "human S1PR5 (Homo sapiens, UniProt Q9H228)",
    "Property name": "pEC50",
    "Meas value": "5.00 to 6.00"
  },
  {
    "Molecule": "Cc1c(COc2ccc3c(c2)CCC(OCC(=O)O)C3)cccc1C(F)(F)F (stereo not drawn) [Compound 200]",
    "System under test": "human S1PR5 (Homo sapiens, UniProt Q9H228)",
    "Property name": "pEC50",
    "Meas value": "5.00 to 6.00"
  },
  {
    "Molecule": "O=C(O)COC1CCc2cc(OCc3cccc(F)c3F)ccc2C1 (stereo not drawn) [Compound 204]",
    "System under test": "human S1PR5 (Homo sapiens, UniProt Q9H228)",
    "Property name": "pEC50",
    "Meas value": "5.00 to 6.00"
  },
  {
    "Molecule": "O=C(O)C1CN(C2COc3cc(OCCCCOc4cccc(F)c4)ccc3C2)C1 (stereo not drawn) [Compound 102]",
    "System under test": "human S1PR5 (Homo sapiens, UniProt Q9H228)",
    "Property name": "pEC50",
    "Meas value": "5.00 to 6.00"
  },
  {
    "Molecule": "Cc1cc(F)cc(COc2ccc3c(c2)OCC(N2CC(C(=O)O)C2)C3)c1 (stereo not drawn) [Compound 87]",
    "System under test": "human S1PR5 (Homo sapiens, UniProt Q9H228)",
    "Property name": "pEC50",
    "Meas value": "5.00 to 6.00"
  }
]

* * *

- System under test: human S1PR5 (Homo sapiens, UniProt Q9H228)
- Construct: host or cells: CHO-K1
- Assay explanation: Intracellular Ca2+ release (FLIPR) agonist potency, S1P5
- Type: cell-based
- Condition set: recombinant CHO-K1 cells expressing human S1PR5, aequorin, Gq/i5; Calcium 5 FLIPR; read-out: S1P5 EC50 range
pEC50: −log10 of the molar value.

[
  {
    "Molecule": "O=C(O)C1CN(C2COc3cc(OCc4ccc(Cl)cc4)ccc3C2)C1 (stereo not shown)",
    "pEC50": "5.00 to 6.00"
  },
  {
    "Molecule": "Cc1ccc(Cl)c(COc2ccc3c(c2)CCC(OCC(=O)O)C3)c1F (stereo not shown)",
    "pEC50": "5.00 to 6.00"
  },
  {
    "Molecule": "COc1ccccc1COc1ccc2c(c1)CCC(OCC(=O)O)C2 (stereo not shown)",
    "pEC50": "5.00 to 6.00"
  },
  {
    "Molecule": "O=C(O)COC1CCc2cc(OCc3cc(F)ccc3F)ccc2C1 (stereo not shown)",
    "pEC50": "6.00 to 7.00"
  },
  {
    "Molecule": "CCc1cccc(Cl)c1COc1ccc2c(c1)OCC(N1CCC(C(=O)O)C1)C2 (stereo not shown)",
    "pEC50": "> 8.00"
  },
  {
    "Molecule": "CCc1cccc(Cl)c1COc1ccc2c(c1)CCC(N(C)CCC(=O)O)C2 (stereo not shown)",
    "pEC50": "> 8.00"
  },
  {
    "Molecule": "CN(CC(=O)O)C1COc2cc(OCc3ccc(OCc4cccc(Cl)c4)cc3)ccc2C1 (stereo not shown)",
    "pEC50": "> 8.00"
  },
  {
    "Molecule": "CCc1cccc(Cl)c1COc1ccc2c(c1)OCC(NCC(=O)O)C2 (stereo not shown)",
    "pEC50": "> 8.00"
  },
  {
    "Molecule": "CCc1cccc(F)c1COc1ccc2c(c1)OCC(NCC(=O)O)C2 (stereo not shown)",
    "pEC50": "> 8.00"
  },
  {
    "Molecule": "O=C(O)C1CN(C2COc3cc(OCc4c(Cl)cccc4Cl)ccc3C2)C1 (stereo not shown) [Compound 1]",
    "pEC50": "> 8.00"
  },
  {
    "Molecule": "O=C(O)C1CN(C2COc3cc(C#Cc4cc(F)ccc4F)ccc3C2)C1 (stereo not shown)",
    "pEC50": "> 8.00"
  },
  {
    "Molecule": "COc1cc(F)cc(COc2ccc3c(c2)OCC(N2CC(C(=O)O)C2)C3)c1 (stereo not shown)",
    "pEC50": "5.00 to 6.00"
  },
  {
    "Molecule": "COc1cccc(COc2ccc3c(c2)OCC(N2CC(C(=O)O)C2)C3)c1F (stereo not shown)",
    "pEC50": "5.00 to 6.00"
  },
  {
    "Molecule": "O=C(O)C1CN(C2COc3cc(OCc4cc(Cl)ccc4Cl)ccc3C2)C1 (stereo not shown)",
    "pEC50": "5.00 to 6.00"
  },
  {
    "Molecule": "O=C(O)CNC1CCc2cc(C#CC3CCCCC3)ccc2C1 (stereo not shown)",
    "pEC50": "> 8.00"
  },
  {
    "Molecule": "O=C(O)C1(NC2COc3cc(OCc4c(Cl)cccc4Cl)ccc3C2)CCC1 (stereo not shown)",
    "pEC50": "5.00 to 6.00"
  }
]
